Kd values for the binders below.
Target: T1, mouse DKK1 (R&D Systems) (mouse, UniProt O54908 32-272)
T1 construct: Bought protein
T1 sequence (looked up): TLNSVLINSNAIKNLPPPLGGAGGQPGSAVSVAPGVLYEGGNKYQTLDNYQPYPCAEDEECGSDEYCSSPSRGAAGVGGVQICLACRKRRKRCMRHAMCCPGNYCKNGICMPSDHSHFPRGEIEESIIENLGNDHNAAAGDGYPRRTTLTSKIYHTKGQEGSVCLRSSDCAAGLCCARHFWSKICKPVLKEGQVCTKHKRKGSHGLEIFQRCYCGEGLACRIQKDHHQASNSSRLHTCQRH
Assay: SPR (Biacore), DKK1 immobilised on CM5 chip, Fab as analyte
Experimental: Using these clones, kinetic SPR analysis is performed on a. […] The Fab preparations are applied in concentration series of 16-500 nM at a flow rate of 20 μl/min. Association phase is set to 60 s and dissociation phase to 120 s.
The figure you give is taken to be in nM; do not add the unit.

Consider the following illustrative entries.
[[record]]
binder = "MOR04470 (Fab, V domains shown, Fab with C-terminal FLAG and 6xHis tags) VH: QVQLVESGGGLVQPGGSLRLSCAASGFTFSSYWMSWVRQAPGKGLEWVSVISSDSSSTYYADSVKGRFTISRDNSKNTLYLQMNSLRAEDTAVYYCARHGIDFDHWGQGTLVTVSS VL: DIALTQPASVSGSPGQSITISCTGTSSDLGGYNYVSWYQQHPGKAPKLMIYDVNNRPSGVSNRFSGSKSGNTASLTISGLQAEDEADYYCQSYASGNTKVVFGGGTKLTVLG"
observed_value = 3.6

[[record]]
binder = "MOR04454 (Fab, V domains shown, Fab with C-terminal FLAG and 6xHis tags) VH: QVQLVESGGGLVQPGGSLRLSCAASGFTFSNYGLHWVRQAPGKGLEWVSSISYYGSSTYYADSVKGRFTISRDNSKNTLYLQMNSLRAEDTAVYYCARDGSHMDKPPGYVFAFWGQGTLVTVSS VL: DIQMTQSPSSLSASVGDRVTITCRASQGIKNYLNWYQQKPGKAPKLLIGAASSLQSGVPSRFSGSGSGTDFTLTISSLQPEDFATYYCLQYYGMPPTFGQGTKVEIKR"
observed_value = 6


Lab note: next binder to report on.
Query: GET /values?readout=Kd&item= MOR04461 (Fab, V domains shown, Fab with C-terminal FLAG and 6xHis tags) VH: QVQLVESGGGLVQPGGSLRLSCAASGFTFSSYWMSWVRQAPGKGLEWVSGISYSGSNTHYADSVKGRFTISRDNSKNTLYLQMNSLRAEDTAVYYCARMGIDLDYWGQGTLVTVSS VL: DIALTQPASVSGSPGQSITISCTGTSSDVGGFNYVSWYQQHPGKAPKLMIHDGSNRPSGVSNRFSGSKSGNTASLTISGLQAEDEADYYCSTWDMTVDFVFGGGTKLTVLG
Response: 12.8
